Data origin, for the record: PubChem BioAssay

Assay: modulators of HCV replicon luciferase signal, primary screen, HCV replication inhibitor project, Huh7 cells, luciferase reporter (AID 1109);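 further: huh7 hepatoma cells harbouring a luciferase neomycin HCV replicon reporter; luciferase luminescence as measure of HCV replicon replication; test concentration not given here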
Details: 48 h, higher = more signal
endpoint-label: z-score
// no unit, no text: just the number

Known z-score results, listed for orientation:
compound="Cc1ccccc1C(O)C1C=CC2C(=O)N(C)C(=O)C2N1N(c1ccccc1)c1ccccc1 (centres undefined)" readout_value=-0.247
compound=CC(C)C(=C=CC[C@H](O)c1cccc(OCCO)c1)C[C@H](O)c1cc(Cl)cc(Cl)c1O readout_value=-0.583
compound=COCCOC(=O)N1C(=O)[C@@]2(c3cc(C#CC4=CCCCC4)ccc31)[C@H](c1ccccc1OCCO)N1[C@H](c3ccccc3)[C@H](c3ccccc3)OC(=O)[C@H]1[C@@H]2C(=O)Nc1nc2ccccc2s1 readout_value=-2.23
compound="CC(=O)c1ccc(C(O)C2C=CC3C(=O)N(c4ccccc4)C(=O)C3N2Nc2ccc(C#N)cc2)cc1 (centres undefined)" readout_value=-0.0483
compound="C=CCC(OC(C)=O)[C@@H]1[C@@H](N(Cc2cc3ccccc3o2)C(=O)Cc2ccc(F)cc2)c2cc(OCCCO)ccc2N1C(=O)c1ccc2ccccc2c1 (some centres undefined)" readout_value=-1.18
compound=CCOC(=O)c1ccc(NC(=O)O[C@H]2[C@H](OC(=O)Nc3ccc4c(c3)OCO4)[C@H](OC(=O)Nc3ccc4c(c3)OCO4)[C@@H](OC)O[C@@H]2CO)cc1 readout_value=0.295
compound="O=C1NC(=O)C2C1C=CC(C(O)c1ccco1)N2Nc1ccccn1 (centres undefined)" readout_value=0.314
compound=[N-]=[N+]=NCc1ccccc1C[C@@]1(C(=O)N2CCOCC2)N=C(c2ccc(OCCCO)cc2)O[C@@H]1c1ccccc1 readout_value=-3.27
compound=COc1ccc([Si](C)(C)[C@@H]2[C@@H](CCn3cc([C@H](O)c4ccccc4)nn3)O[C@]3(C(=O)N(Cc4ccc(N5CCC5=O)cc4)c4ccccc43)[C@H]2C)cc1 readout_value=-2.06
compound=CN(C)C(=O)[C@]1(CCS(=O)(=O)c2ccccc2)N=C(c2ccc(OCCCO)cc2)O[C@@H]1c1ccccc1N=[N+]=[N-] readout_value=0.0131

Now for the compound whose z-score we want.
Recorded z-score for CC1=C[C@@]2(CO)C(=O)[C@]3(CO3)[C@@H]1[C@H]1[C@]2(C)C=C(CO)C(=O)[C@]12CO2 , please?
-1.61
